Measured IC50, listed per entry.
TESTED_ON: full-length beta-Catenin (Uniprot ID P35222) (Homo sapiens)
Construct: 10 nM full-length beta-Catenin (Uniprot ID P35222)
Sequence (P35222 1-781): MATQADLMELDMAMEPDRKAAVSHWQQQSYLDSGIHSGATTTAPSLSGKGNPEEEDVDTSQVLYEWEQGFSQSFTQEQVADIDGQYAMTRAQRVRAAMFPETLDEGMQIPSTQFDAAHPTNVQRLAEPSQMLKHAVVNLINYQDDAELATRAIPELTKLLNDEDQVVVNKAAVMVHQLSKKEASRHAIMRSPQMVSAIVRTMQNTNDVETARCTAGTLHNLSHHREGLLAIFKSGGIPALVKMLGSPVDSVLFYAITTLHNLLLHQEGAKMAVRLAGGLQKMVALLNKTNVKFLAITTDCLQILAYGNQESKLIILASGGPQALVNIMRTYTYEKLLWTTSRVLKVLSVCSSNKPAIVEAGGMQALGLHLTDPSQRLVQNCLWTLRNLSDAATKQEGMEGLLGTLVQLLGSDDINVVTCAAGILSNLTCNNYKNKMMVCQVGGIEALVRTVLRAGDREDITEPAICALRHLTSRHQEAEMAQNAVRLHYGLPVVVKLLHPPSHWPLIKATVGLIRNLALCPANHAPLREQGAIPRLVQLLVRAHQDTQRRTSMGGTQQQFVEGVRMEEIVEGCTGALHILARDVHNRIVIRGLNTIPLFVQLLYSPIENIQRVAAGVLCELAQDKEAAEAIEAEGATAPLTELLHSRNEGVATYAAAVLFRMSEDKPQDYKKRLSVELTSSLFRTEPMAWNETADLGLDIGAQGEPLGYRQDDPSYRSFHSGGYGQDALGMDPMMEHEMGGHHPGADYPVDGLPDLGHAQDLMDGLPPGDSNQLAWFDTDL
TEST_NAME: Fluorescence polarization IC50 (beta-catenin / 5FAM-TCF4 10-53 competition)
Type: binding
APPLIED_CONDITIONS: fluorescence polarization; read-out: beta-Catenin FP IC50

COMPOUND: CC(=O)N1CCC[C@]12CC=CCCCC1(CCCC=CCCCOC(=O)N3CC[C@@](C(=O)N[C@@H](Cc4ccsc4)C(=O)N[C@@H](Cc4csc5ccccc45)C(=O)N[C@H](C(N)=O)C(C)C)(C3)NC(=O)[C@H]([C@@H](C)O)NC(=O)[C@H](Cc3ccccc3)NC(=O)[C@H](C)NC(=O)[C@H](CCCCNC(C)C)NC(=O)[C@H](CN(CC(=O)O)CC(F)(F)F)NC(=O)[C@H](CC(=O)O)NC1=O)NC(=O)[C@H](CC(C)(C)C)NC(=O)[C@H](CC(=O)O)NC2=O (stereo partly drawn) [I-1764]
TESTED_ON: full-length beta-Catenin (Uniprot ID P35222) (Homo sapiens)
IC50 [nM]: 23
--
COMPOUND: CC(=O)N1CCC[C@]12CC=CCCCC1(CCCC=CCCCCCC[C@@](C)(C(=O)N[C@@H](Cc3ccccc3[N+](=O)[O-])C(=O)N[C@@H](Cc3csc4ccccc34)C(=O)N[C@@H](CCC(N)=O)C(N)=O)NC(=O)[C@H](CC(N)=O)NC(=O)[C@H](Cc3ccccc3)NC(=O)[C@H](C)NC(=O)[C@H](C)NC(=O)[C@H](CCC(=O)O)NC(=O)[C@H](CC(=O)O)NC1=O)NC(=O)[C@H](C)NC(=O)[C@H](CC(=O)O)NC2=O (stereo partly drawn) [I-441]
TESTED_ON: full-length beta-Catenin (Uniprot ID P35222) (Homo sapiens)
IC50 [nM]: 133
--
COMPOUND: CC(=O)N1CCC[C@]12CC=CCCCC1(CCCC=CCCCOC(=O)N3CC[C@@](C(=O)N[C@@H](Cc4ccccc4Cl)C(=O)N[C@@H](Cc4csc5ccccc45)C(=O)N[C@@H](C)C(N)=O)(C3)NC(=O)[C@H](C)NC(=O)[C@H](Cc3ccccc3)NC(=O)[C@H](C)NC(=O)[C@H](C)NC(=O)[C@H](Cc3cccc(C(=O)O)c3)NC(=O)[C@H](CC(=O)O)NC1=O)NC(=O)[C@H](CC(C)(C)C)NC(=O)[C@H](CC(=O)O)NC2=O (stereo partly drawn) [I-2023]
TESTED_ON: full-length beta-Catenin (Uniprot ID P35222) (Homo sapiens)
IC50 [nM]: 32
